# System: Escherichia coli
# Method Summary: Antibacterial activity against Escherichia coli ATCC 10536 after 16 to 20 hrs
# Format: functional
Calls of active or inactive are those of the source. No cut-off for these calls is given here.
Please reply with one of these outcomes: active, inactive

How did this test come out for COc1c(C)c(O)c2c(c1O)[C@@H](CO)N1[C@H]3[C@@H]4[C@@H](C[C@H]([C@H]1O)N4C)[C@@H]1OCCN1[C@@H]23 ?
active

For this compound, state the assay outcome: COC1=C(C)C(=O)C2=C(C1=O)[C@@H](CO)N1[C@H]3[C@H]4N[C@H](C[C@H]4[C@@H]4OCCN4[C@@H]23)[C@@H]1O
active

Field: outcome | Entry: COc1c(C)c(OC)c2c(c1OC)[C@@H](CO)N1[C@H]3[C@@H]4[C@@H](C[C@H]([C@H]1C#N)N4C)[C@@H]1OCCN1[C@@H]23
inactive

Which result was noted for this compound in the test: COc1c(C)c(O)c2c(c1O)[C@@H](CO)N1[C@H]3[C@@H]4[C@@H](C[C@H]([C@H]1C#N)N4C)[C@@H]1OCCN1[C@@H]23
active

====

# Test system: Micrococcus luteus
# Method Summary: Antibacterial activity against Micrococcus luteus ATCC 4698 after 16 to 20 hrs
# Format: functional
Calls of active or inactive are those of the source. The calls are words filed in the database; no cut-off is given here.
Value Kind: Activity

{"columns": ["Line Notation", "Test Target", "Value Kind", "Data Value"],
 "data": [
  ["COc1c(C)c(O)c2c(c1O)[C@@H](CO)N1[C@H]3[C@@H]4[C@@H](C[C@H]([C@H]1C#N)N4C)[C@@H]1OCCN1[C@@H]23", "Micrococcus luteus", "Activity", "Active"],
  ["COc1c(C)c(O)c2c(c1O)[C@@H](CO)N1[C@H]3[C@@H]4[C@@H](C[C@H]([C@H]1O)N4C)[C@@H]1OCCN1[C@@H]23", "Micrococcus luteus", "Activity", "Active"],
  ["COC1=C(C)C(=O)C2=C(C1=O)[C@@H](CO)N1[C@H]3[C@H]4N[C@H](C[C@H]4[C@@H]4OCCN4[C@@H]23)[C@@H]1O", "Micrococcus luteus", "Activity", "Active"]
]}

====

# Test system: Serratia marcescens
# Method Summary: Antibacterial activity against Serratia marcescens ATCC 13880 after 16 to 20 hrs
# Type: functional
The source made the active and inactive calls. The calls are words filed in the database; no cut-off is given here.
Value Kind: Activity

{"columns": ["Line Notation", "Data Value"],
 "data": [
  ["COc1c(C)c(O)c2c(c1O)[C@@H](CO)N1[C@H]3[C@@H]4[C@@H](C[C@H]([C@H]1O)N4C)[C@@H]1OCCN1[C@@H]23", "Active"],
  ["COc1c(C)c(O)c2c(c1O)[C@@H](CO)N1[C@H]3[C@@H]4[C@@H](C[C@H]([C@H]1C#N)N4C)[C@@H]1OCCN1[C@@H]23", "Active"],
  ["COC1=C(C)C(=O)C2=C(C1=O)[C@@H](CO)N1[C@H]3[C@H]4N[C@H](C[C@H]4[C@@H]4OCCN4[C@@H]23)[C@@H]1O", "Active"]
]}

====

# Test system: Enterococcus faecalis
# Method Summary: Antibacterial activity against Streptococcus faecalis ATCC 29212 after 16 to 20 hrs
# Format: functional
Calls of active or inactive are those of the source. The calls are words filed in the database; no cut-off is given here.
// allowed return values: active, inactive

Write down the call the test reported for this compound. Item: COc1c(C)c(O)c2c(c1O)[C@@H](CO)N1[C@H]3[C@@H]4[C@@H](C[C@H]([C@H]1O)N4C)[C@@H]1OCCN1[C@@H]23
active

Dear all, I need the recorded test outcome for COc1c(C)c(O)c2c(c1O)[C@@H](CO)N1[C@H]3[C@@H]4[C@@H](C[C@H]([C@H]1C#N)N4C)[C@@H]1OCCN1[C@@H]23 , thank you.
active

Fill in: this test's call for COc1c(C)c(OC)c2c(c1OC)[C@@H](CO)N1[C@H]3[C@@H]4[C@@H](C[C@H]([C@H]1C#N)N4C)[C@@H]1OCCN1[C@@H]23 is ___
inactive

What did the test return for COC1=C(C)C(=O)C2=C(C1=O)[C@@H](CO)N1[C@H]3[C@H]4N[C@H](C[C@H]4[C@@H]4OCCN4[C@@H]23)[C@@H]1O ?
active

Source listed as ChEMBL document CHEMBL1148185.
